biological target: human CXCR3 (N-delta 4) (Homo sapiens); construct: CD8 leader (N); Flag tag; expressed in transfected cells; membranes; assay: Human CXCR3 (N-delta 4) Scintillation Proximity Assay (SPA), [125I] IP-10 binding; details: IC50 rating; [125I] IP-10 displacement, Ba/F3-hCXCR3 (N-delta 4) membranes
measured-property: IC50

These recorded examples may help you get a feel for the data.
In [3]: df
Out[3]:
                                   compound  measured_property  recorded_result
0  CC[C@H]1CN(c2ncc(C3=NCCN3)cc2Cl)CCN1C1CCN(Cc2ccc(C3CC3CO)cc2)CC1 (stereo partly shown)               IC50         > 100 nM
1  CC[C@H]1CN(c2ncc(C3=NCCN3)cc2Cl)CCN1C1CCN(C(CO)c2ccc(Cl)cc2)CC1 (stereo partly shown)               IC50          < 25 nM
2  CC[C@H]1CN(c2ncc(-c3ncc[nH]3)cc2Cl)CCN1C1CCN(C(=O)c2ccc(C#CC(C)(C)NS(C)(=O)=O)cc2)CC1               IC50         > 100 nM
3  CC[C@H]1CN(c2ncc(C3=NCCN3)cc2Cl)CCN1C1CCN(C(=O)c2ccc(Cl)cc2C(N)=NO)CC1               IC50          < 25 nM
4  CC[C@H]1CN(c2ncc(-c3ncc[nH]3)cc2Cl)CCN1C1CCN(Cc2ccc(C#CC(C)(C)NS(C)(=O)=O)cc2)CC1               IC50         > 100 nM

Quick note, IC50 for CC[C@H]1CN(c2ncc(-c3ncc[nH]3)cc2Cl)CCN1C1CCN(C(=O)c2ccc(C#CC(C)(C)NC(=O)OC(C)(C)C)cc2)CC1 landed at > 100 nM

Quick note, IC50 for CCOC(CNC(=N)c1cc(Cl)ccc1CN1CCC(N2CCN(c3ncc(-c4ncc[nH]4)cc3Cl)C[C@@H]2CC)CC1)OCC landed at < 25 nM

====

Target: human CXCR3 (N-delta 4) (Homo sapiens)
Construct: CD8 leader (N); Flag tag; expressed in transfected cells; membranes
Sequence (P49682 5-368 limits assumed): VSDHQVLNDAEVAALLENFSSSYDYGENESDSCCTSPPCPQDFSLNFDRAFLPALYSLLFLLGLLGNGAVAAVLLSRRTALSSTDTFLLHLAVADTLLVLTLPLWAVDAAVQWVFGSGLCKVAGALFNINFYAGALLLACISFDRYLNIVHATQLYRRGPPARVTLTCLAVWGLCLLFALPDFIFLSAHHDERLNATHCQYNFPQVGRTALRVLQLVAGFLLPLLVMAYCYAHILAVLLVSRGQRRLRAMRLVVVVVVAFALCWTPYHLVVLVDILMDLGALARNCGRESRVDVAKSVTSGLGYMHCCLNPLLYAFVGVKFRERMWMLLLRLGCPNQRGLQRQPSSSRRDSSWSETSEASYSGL
Assay: Human CXCR3 (N-delta 4) Scintillation Proximity Assay (SPA), [125I] IP-10 binding
Details: IC50 rating; [125I] IP-10 displacement, Ba/F3-hCXCR3 (N-delta 4) membranes
measured-property: IC50

These recorded examples may help you get a feel for the data.
                                   compound  recorded_result
0  CC[C@H]1CN(c2ncc(-c3nnc(CO)o3)cc2Cl)CCN1C1CCN(C(C(=O)OC)c2ccc(Cl)cc2)CC1 (some centres unmarked)     25 to 100 nM
1  CC[C@H]1CN(c2ncc(-c3ncc[nH]3)cc2Cl)CCN1[C@H]1CCN(Cc2ccc(Cl)cc2C(=O)NC)C[C@@H]1O         > 100 nM
2  CC[C@H]1CN(c2ncc(-c3ncc[nH]3)cc2Cl)CCN1C1CCN(CCC(=O)c2ccc(Cl)cc2)CC1          < 25 nM

Quick note, IC50 for CC[C@H]1CN(c2ncc(-c3ncc[nH]3)cc2Cl)CCN1C1CCN(C(C(=O)Nc2ccccn2)c2ccc(Cl)cc2)CC1 (some centres unmarked) landed at 25 to 100 nM

Quick note, IC50 for CC[C@H]1CN(c2ncc(-c3ncc[nH]3)cc2Cl)CCN1C1CCN(Cc2ccc(Cl)cc2C(=O)NN)CC1 landed at < 25 nM

Quick note, IC50 for CC[C@H]1CN(c2ncc(C3=NCCN3)cc2Cl)CCN1C1CCN(Cc2ccc(Cl)cc2F)CC1 landed at < 25 nM

Quick note, IC50 for CC[C@H]1CN(c2ncc(-c3ncc[nH]3)cc2Cl)CCN1C1CCN(Cc2ccc(-n3cncn3)cc2)CC1 landed at < 25 nM

Quick note, IC50 for CC[C@H]1CN(c2ncc(-c3nccn3C(=O)c3ccc(Cl)cc3)cc2Cl)CCN1C1CCN(C(=O)c2ccc(Cl)cc2)CC1 landed at < 25 nM

Quick note, IC50 for CC[C@H]1CN(c2ncc(-c3ncc[nH]3)cc2Cl)CCN1C1CCN(C(=O)c2ccc(-n3cncn3)nc2)CC1 landed at 25 to 100 nM

Quick note, IC50 for CC[C@H]1CN(c2ncc(C3=NCCN3C(=O)c3ccc(Cl)cc3)cc2Cl)CCN1C1CCN(C(=O)c2ccc(Cl)cc2)CC1 landed at > 100 nM
